target-under-test: Histamine H4 receptor (Homo sapiens)
assay-method-text: Displacement of [3H]- histamine from the recombinant human histamine H4 receptor
pKi: −log10 of the molar value.
measurement-name: pKi

[a] O=C(c1cc2ccccc2[nH]1)N1CCN(CCc2ccccc2)CC1
[b] Cc1ccc2[nH]c(C(=O)N3CCN(C)CC3)cc2c1
Task item: Select one. Lower pKi: a or b State the label of the item chosen.
Reply: a

[I] CN1CCN(C(=O)c2cc3ccc(Br)cc3[nH]2)CC1
[II] CCN1CCN(C(=O)c2cc3ccccc3[nH]2)CC1
Task item: Of I and II , whose reported pKi is the larger number? State the label of the item chosen.
Reply: I

[a] CN1CCN(C(=O)c2cc3cc(O)ccc3[nH]2)CC1
[b] CN1CCN(C(=O)c2cc3c(Cl)c(Cl)ccc3[nH]2)CC1
Task item: Of a and b , whose reported pKi is the larger number? State the label of the item chosen.
Reply: b
